Target: T1, MHC class I molecule A*0201 (biotin (bound to streptavidin-coated plate))
T1 construct: also called A2; HLA-A2
Test: iTopia iScore
I'd be grateful if you could share measured iScore for these entries.
Answers are plain numbers.

For orientation, consider the following solved cases.
binder	measure	meas.value
AGAFEHLPS [5T4 9-mer peptide 68 AGAFEHLPS]	iScore	0
NRNLTEVPT [5T4 9-mer peptide 40 NRNLTEVPT]	iScore	0
LPAYVRNLF [5T4 9-mer peptide 45 LPAYVRNLF]	iScore	0
TDLPAYVRN [5T4 9-mer peptide 44 TDLPAYVRN]	iScore	0
RRLELASNH [5T4 9-mer peptide 107 RRLELASNH]	iScore	0

Look up iScore for the entries below, preserving their order.
1. PFAFSGSNA [5T4 9-mer peptide 80 PFAFSGSNA]
2. SEAARTVKC [5T4 9-mer peptide 35 SEAARTVKC]
3. APFLASAVS [5T4 9-mer peptide 23 APFLASAVS]

0
0
0.041
